src = PubChem BioAssay

Overview of reported composite z-score across a group of compounds:
Run Description: small-molecule binders of probe aNOTCH3, primary screen, biochemical, small-molecule microarray, 635/667 nm fluorescence (AID 1120);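 further: probe is a biotin-tagged antibody raised against NOTCH3 rather than NOTCH3 protein; score merges spot fluorescence near 667 nm with spot signal to noise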
Protocol Conditions: higher = more signal
The answer should be written as a number, with no unit following it.

Compound	composite z-score
CC(CCN1CCc2nc(-c3ccccc3)c(-c3ccccc3)cc2C1)=NOC[C@@H](C)[C@H](OCc1ccccc1)C(C)C	0.0375
CC(CCC(=O)OC[C@H]1O[C@H](C#Cc2ccccc2)C=C[C@@H]1Oc1ccc(C)cc1)=NOC[C@@H](O)[C@H]1O[C@@H]2OC(C)(C)O[C@@H]2[C@H]1O	-0.2
CN(C)CCCNC(=O)[C@@H]1c2ccccc2C(=O)N(Cc2ccccc2)[C@H]1c1ccc(CO)cc1	-0.0971
COC(=O)[C@H](C)NC(=O)CCC1CC(OC(=O)NCc2cccc3ccccc23)CC2(CCCC(COC(=O)NCCc3ccc(Cl)cc3)O2)O1 (stereo partly specified)	-0.176
O=C1O[C@@H](c2ccccc2)[C@@H](c2ccccc2)N2[C@@H](c3ccc(O)cc3)[C@]3(C(=O)Nc4ccccc43)[C@@H](C(=O)O)[C@H]12	-0.0903

Task: Value lookup for composite z-score; key = `COCCOC(=O)N1C(=O)[C@@]2(c3cc(C#CCNC(N)=O)ccc31)[C@H](c1ccccc1OCCO)N1[C@H](c3ccccc3)[C@H](c3ccccc3)OC(=O)[C@H]1[C@@H]2C(=O)N1CCN(c2ncccn2)CC1`
Result: 0.169

====

Here, each record is paired with measured composite z-score data.
Experimental System: Alpha-bungarotoxin (Bungarus multicinctus)
Run Description: alpha-bungarotoxin binders on microarray, profiling panel, artefact control for SMM control protein annotation, biochemical, small-molecule microarray, Alexa647 label, 635/667 nm fluorescence (AID 1117)
Protocol Conditions: alpha-BTX-A647 binding fluorescence, higher = more signal
Give only the figure.

Some compounds with known composite z-score results, for comparison:
> print(dat)
                                   compound                       experimental.system  value
1  COc1ccc([Si](C)(C)[C@H]2[C@H](CCO)O[C@@]3(C(=O)N(Cc4cccc(NC(=O)[C@H](C)O)c4)c4ccccc43)[C@@H]2C)cc1  Alpha-bungarotoxin (Bungarus multicinctus)   1.36
2  CC1(C)OCC(C(O)C2=CCCCC2=O)CO1 (stereo not drawn)  Alpha-bungarotoxin (Bungarus multicinctus)   1.16

Turning to the following compound.
Task: # lookup: composite z-score of `O=C1[C@H]2[C@H]3[C@H](O)[C@H](O)CC(=NO[C@@H]4O[C@H](CO)[C@@H](O)[C@H](O)[C@H]4O)[C@H]3CC[C@H]2C(=O)N1Cc1ccccc1`
Result: 0.784

====

Experimental System: NADPH oxidase 2 (Homo sapiens) (UniProt P04839)
Sequence (P04839 whole entry, looked up): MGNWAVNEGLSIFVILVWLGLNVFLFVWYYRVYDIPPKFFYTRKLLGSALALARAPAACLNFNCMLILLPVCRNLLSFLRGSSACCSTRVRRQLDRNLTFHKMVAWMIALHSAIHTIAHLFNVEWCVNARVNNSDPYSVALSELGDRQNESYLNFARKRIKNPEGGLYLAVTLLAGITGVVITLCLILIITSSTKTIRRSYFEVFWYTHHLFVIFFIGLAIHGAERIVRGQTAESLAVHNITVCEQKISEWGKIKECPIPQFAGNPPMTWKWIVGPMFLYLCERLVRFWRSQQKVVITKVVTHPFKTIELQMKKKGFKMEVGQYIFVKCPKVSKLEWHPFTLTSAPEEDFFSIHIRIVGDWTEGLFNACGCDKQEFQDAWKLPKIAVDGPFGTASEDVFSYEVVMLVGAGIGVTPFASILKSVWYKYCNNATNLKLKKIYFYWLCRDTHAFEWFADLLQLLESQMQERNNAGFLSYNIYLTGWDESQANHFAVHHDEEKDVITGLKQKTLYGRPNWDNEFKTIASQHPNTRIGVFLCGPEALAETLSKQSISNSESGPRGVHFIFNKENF
Run Description: NOX2-dependent H2O2 signal modulators, primary screen, NOX inhibitor project, cell-based, HEK293-NOX2, PMA-stimulated, Amplex Red fluorescence (AID 1159); further: test concentration not given here
Protocol Conditions: 45 min, higher = more signal, called active from +8 up or from −8 down
Calls of active or inactive are those of the source.
Below is a list of entries, each paired with its recorded z-score value.

# annotated cases, reported z-score shown
Compound	Experimental System	z-score
O=C1CCCC2OC12C(O)CCc1ccccc1 (centres undefined)	NADPH oxidase 2 (Homo sapiens) (UniProt P04839)	0.504 (inactive)
CC(C)CON=C1C[C@@H](O)[C@@H](O)[C@@H]2[C@@H]3C(=O)N([C@@H](C)c4ccccc4)C(=O)[C@@H]3CC[C@H]12	NADPH oxidase 2 (Homo sapiens) (UniProt P04839)	-3.44 (inactive)
CC(C)=CCCC(C)=CCON=C1C[C@@H](O)[C@@H](O)[C@@H]2[C@@H]3C(=O)N(C[C@@H]4CCCO4)C(=O)[C@@H]3CC[C@@H]12	NADPH oxidase 2 (Homo sapiens) (UniProt P04839)	0.752 (inactive)
CC(C)(C)N1C(=O)[C@H]2[C@H]3[C@H](O)[C@H](O)CC(=NO[C@@H]4O[C@H](CO)[C@@H](O)[C@H](O)[C@H]4O)[C@@H]3CC[C@H]2C1=O	NADPH oxidase 2 (Homo sapiens) (UniProt P04839)	1.01 (inactive)

Task: Any idea what z-score came out for `O=C1C[C@@H](O)[C@@H](O)[C@@H]2[C@@H]3C(=O)N(C4CCCCC4)C(=O)[C@@H]3CC[C@H]12` on NADPH oxidase 2 (Homo sapiens) (UniProt P04839)?
Result: -1.6 (inactive)

Task: Provide value of z-score for this record tested with NADPH oxidase 2 (Homo sapiens) (UniProt P04839): `COC(=O)CC=C[C@@H](C)[C@H](OC)c1ccccc1Br`
Result: -0.524 (inactive)

Task: Query for NADPH oxidase 2 (Homo sapiens) (UniProt P04839): what z-score does the record show for O=C1NC(=O)C2C1C=CC(C(O)Cc1ccccc1)N2Nc1ccccn1 (centres undefined) ?
Result: -1.58 (inactive)

Task: Requested read-out z-score, target or system NADPH oxidase 2 (Homo sapiens) (UniProt P04839), entry Cc1cc2c(nc1C)CCCN2CC(C)ON=C1[C@H]2CCn3c(=O)n(-c4ccccc4)c(=O)n3[C@H]2[C@H](O)[C@@H]2O[C@H]12 (some centres undefined)
Result: -0.435 (inactive)

Task: For the record COC(=O)[C@H](C)NC(=O)CCC1CC(OC(=O)NCCc2ccc(F)cc2)CC2(CCCC(COC(=O)NCCc3ccc(Cl)cc3)O2)O1 (some centres undefined) , what value of z-score is listed for NADPH oxidase 2 (Homo sapiens) (UniProt P04839)?
Result: 0.431 (inactive)

====

Run Description: E. coli acrAB mutant growth effects, primary screen, E. coli filamentation inducers, strain DRC39, OD650, 48 h (AID 1179);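 further: screen aims at cell division blockers that make cells filament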
Protocol Conditions: E. coli DRC39 delta-acrAB growth, higher = more signal, called active from +8 up or from −8 down
Quick list: z-score per entry.
Just the number, please, no unit after it.

Solved entries:
Compound	z-score
CC(CCN1CCc2nc(-c3ccccc3)c(-c3ccccc3)cc2C1)=NO[C@H](C)c1cn([C@@H]2COC[C@H]2O)nn1	0.705
Cc1ccc(C2CC=C(C(=O)O)CN2S(=O)(=O)c2ccc(C)cc2)cc1 (stereo unspecified)	-1.52
CN(C)CCCNC(=O)[C@@H]1c2ccccc2C(=O)N(Cc2cc(F)cc(C(F)(F)F)c2)[C@H]1c1ccc(CO)cc1	-0.578
C#CCCCON=C1C[C@@H](O)[C@@H](O)[C@@H]2[C@@H]3C(=O)N(CCC(=O)OCC)C(=O)[C@@H]3CC[C@@H]12	0.529
COCCOC(=O)N1C(=O)[C@@]2(c3cc(C#CCNC(N)=O)ccc31)[C@H](c1ccccc1OCCO)N1[C@H](c3ccccc3)[C@H](c3ccccc3)OC(=O)[C@H]1[C@@H]2C(=O)N1CCN(c2ncccn2)CC1	1.18

Task: Need z-score of COC(=O)[C@H](C)NC(=O)CCC1CC(OC(=O)NCCc2ccc(F)cc2)CC2(CCCC(COC(=O)NCCc3ccc(Cl)cc3)O2)O1 (stereo partly specified) , thanks.
Result: 0.942

Task: Look at this compound and give its reported z-score. `CCc1cc2c(nc1CC)CCN(CCC(C)=NOC[C@@H](O)[C@H]1O[C@@H]3OC(C)(C)O[C@@H]3[C@H]1O)C2`
Result: -0.953

Task: So what's the measured z-score for this one? `COc1ccc(O[C@H]2C=C[C@@H](c3ccccc3)O[C@@H]2COC(=O)CCC(C)=NO[C@H](C)c2cn([C@@H]3COC[C@H]3O)nn2)cc1`
Result: -0.033

Task: Need z-score, item `CC(C)[Si]1(C(C)C)O[C@@H](c2ccccc2)c2cc(C3CC3)nc(-c3ccccc3)c21`
Result: -0.785

Task: Could you share which z-score value was measured for `NCCCCCNC(=O)[C@@H]1C[C@@H]2C(=O)N3CCC[C@H]3C(=O)N2[C@@H]1c1cccc(OCCO)c1` ?
Result: -0.109

Task: Entry `COc1ccc([Si](C)(C)[C@@H]2[C@@H](CCO)O[C@]3(C(=O)N(Cc4ccc(NC(C)=O)cc4)c4ccccc43)[C@H]2C)cc1` : reported z-score = ?
Result: -0.937

====

Run Description: small-molecule binders of probe aInhba, primary screen, biochemical, small-molecule microarray, 635/667 nm fluorescence (AID 1148);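 further: score merges 667nm spot fluorescence with signal-to-noise for antibody binding to printed compounds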
Protocol Conditions: higher = more signal
Items are presented alongside their recorded composite z-score.
Please respond with just the number, no unit label.

Task: Consider the compound `C[C@@H]1C=CCC(=O)OC[C@H](C)C(=O)N[C@@H](C)C(=O)OC1` and give its measured composite z-score.
Result: -0.0044

Task: Record request: composite z-score value, item N#Cc1ccc(NN2C(C(O)c3cccc4ccccc34)C=CC3C(=O)N(c4ccccc4)C(=O)C32)cc1 (configuration not stated)
Result: 0.49

Task: Given `O=C1[C@H]2[C@H]3[C@H](O)[C@H](O)CC(=NOCc4ccccc4)[C@H]3CC[C@H]2C(=O)N1c1ccc(F)cc1F` , state its recorded composite z-score.
Result: -0.536

Task: Tell me the measured composite z-score of `CC(C)(C)N1C(=O)[C@H]2[C@H]3[C@H](O)[C@H](O)CC(=NO[C@@H]4O[C@H](CO)[C@@H](O)[C@H](O)[C@H]4O)[C@@H]3CC[C@H]2C1=O` , please.
Result: 0.0051

Task: Dear colleague, I am looking for the recorded composite z-score of the following compound: `CCc1cc2c(nc1CC)CCN(CCC(C)=NO[C@@H](C)c1cc(-c3c(C)cc(C)cc3C)no1)C2`
Result: -0.0762

Task: What value of composite z-score has been recorded for this entry: `O=C1[C@H]2[C@H]3[C@H](O)[C@H](O)CC(=NOC[C@@H](O)COCc4ccco4)[C@H]3CC[C@H]2C(=O)N1c1cccc(Oc2ccccc2)c1`
Result: -0.285

Task: Dear colleague, I am looking for the recorded composite z-score of the following compound: `COCC(=C=CC[C@@H](O)c1ccccc1OCCO)CCO`
Result: -0.0074

Task: // returns reported composite z-score for input `CO[C@H]1O[C@H](CO)[C@@H](OC(=O)Nc2ccc3c(c2)OCO3)[C@H](OC(=O)Nc2ccccc2-c2ccccc2)[C@@H]1OC(=O)Nc1ccccc1-c1ccccc1`
Result: 0.124

Task: Tell me the measured composite z-score of `COC(=O)[C@@]1(Cc2ccc(F)cc2)[C@H]2c3cc(C(=O)N(C)C)n(Cc4ccc(OC)c(OC)c4)c3C[C@H]2CN1C(=O)c1ccccc1` , please.
Result: 0.351

Task: Recorded composite z-score for `O=C(CS)NCCCCCNC(=O)[C@H]1C[C@H]2C(=O)N3CCC[C@H]3C(=O)N2[C@H]1c1cccc(OCCO)c1` , please?
Result: -0.016

Task: Returns the measured composite z-score for the input compound. Input: `CCCNC(=O)OC[C@H]1O[C@H](CCON=C2[C@H]3CCn4c(=O)n(-c5ccccc5)c(=O)n4[C@H]3[C@H](O)[C@@H]3O[C@H]23)C=C[C@@H]1Oc1ccc(OC)cc1`
Result: 0.0294

Task: Which composite z-score reading was recorded for the compound CCCCCN1CC=CC23O[C@@H]4C=CCOC(=O)[C@@H]4[C@H]2C(=O)N(CCCCCCO)[C@@H]3C1=O (some centres not stated) ?
Result: -0.15

Task: What value of measured composite z-score is listed for `CCOC(=O)C[C@H]1[C@H](OC(=O)c2ccc(C(=O)c3ccccc3)cc2)[C@@H](NC(=O)c2ccc(-c3ccccc3)cc2)c2cc(OCCCO)ccc2N1C(=O)c1ccc2ccccc2n1` ?
Result: -0.102

Task: Request the reported composite z-score associated with `CO[C@@H]1COC(=O)[C@@H]2CCCN2C(=O)[C@@H](C)COC(=O)[C@H](COCc2ccccc2)NC(=O)CC=C[C@H]1C`
Result: -0.172

Task: Recorded composite z-score for `CCOC(=O)CCN1C(=O)[C@H]2[C@H]3[C@H](O)[C@H](O)CC(=NNC(=O)OCc4ccc(OC)cc4)[C@@H]3CC[C@H]2C1=O` , please?
Result: -0.195

Task: Return reported composite z-score; argument: `O=C1c2ccccc2[C@@]2(Cc3ccccc3N(C3CC3)C2=O)[C@H](c2ccc(CO)cc2)N1Cc1ccccc1C(F)(F)F`
Result: 0.21

Task: Recorded composite z-score for C=CCC(OC(C)=O)[C@@H]1[C@@H](N(Cc2cc3ccccc3o2)C(=O)Cc2ccc(F)cc2)c2cc(OCCCO)ccc2N1C(=O)Cc1ccc(OC)cc1 (some centres not stated) , please?
Result: -0.045
